biological target: BRD4 first bromodomain (BD1), N44-E168 (human, UniProt O60885-1 44-168); experiment: ITC; peptide in the syringe titrated into protein in the cell; 15 °C; 50 mM HEPES pH 7.5, 150 mM NaCl; single binding site model; settings: both partners purified
pKd: −log10 of the molar value. Where no end group is shown, it is not given here.
measurement type: pKd

binder="RRRK(Ac)RFK(Ac)RHQ [FOXD3 K235ac/K238ac peptide]" measurement_type=pKd numeric_value=4.20
binder="HFAK(Ac)ARK(Ac)VPS [FOXN3 K426ac/K429ac peptide]" measurement_type=pKd numeric_value=4.42
binder="LTNK(Ac)GHK(Ac)WKQ [DMTF1 K147ac/K150ac peptide]" measurement_type=pKd numeric_value=4.15
binder="IHCK(Ac)AGK(Ac)GRT [PTEN K125ac/K128ac peptide]" measurement_type=pKd numeric_value=3.86
binder="DGGK(Ac)SGK(Ac)APR [FOXO3 K242ac/K245ac peptide]" measurement_type=pKd numeric_value=4.79
binder="NSNK(Ac)YTK(Ac)SRG [FOXO3 K259ac/K262ac peptide]" measurement_type=pKd numeric_value=3.80
